tested_system: HER-2 (Homo sapiens)
Construct: His6 with thrombin site (N)
procedure_summary: HER-2 Kinase Assay
experimental_context: value in parentheses
pIC50: −log10 of the molar value.

- compound: "O=C(Nc1ccc(CN2CCOCC2)cc1)c1sc2ncnc3c2c1NC(=O)N3c1c(Cl)ccc2c1OCO2 [Cpd 62]"
  value_prefix: "="
  pIC50: 6.28
- compound: "COc1cc(NC(=O)c2sc3ncnc4c3c2NC(=O)N4c2ccc(Oc3ccccc3)c(Br)c2)ccc1CN1CCOCC1 [Cpd 189]"
  value_prefix: "="
  pIC50: 7.14
- compound: "COc1cc(NC(=O)c2sc3ncnc4c3c2NC(=O)N4c2ccc(Oc3ccccc3)cc2)ccc1OCCN1CCOCC1 [Cpd 167]"
  value_prefix: "="
  pIC50: 6.89
- compound: "O=C(O)c1sc2ncnc3c2c1NC(=O)N3c1ccc2c(ccn2Cc2cccc(F)c2)c1 [Cpd 77]"
  value_prefix: "="
  pIC50: 5.86
- compound: "COc1cc(NC(=O)c2sc3ncnc4c3c2NC(=O)N4c2cccc(Br)c2)ccc1CN1CCOCC1 [Cpd 184]"
  value_prefix: "="
  pIC50: 7.10
- compound: "O=C(Nc1ccc(CN2CCOCC2)c(C(F)(F)F)c1)c1sc2ncnc3c2c1NC(=O)N3c1ccc(Oc2ccccc2)cc1 [Cpd 231]"
  value_prefix: "="
  pIC50: 5.98
- compound: "CN1CCN(NC(=O)c2sc3ncnc4c3c2NC(=O)N4c2ccc(Oc3ccccc3)cc2)CC1 [Cpd 215]"
  value_prefix: "="
  pIC50: 5.35
- compound: "COc1ccc(N2C(=O)Nc3c(C(=O)Nc4ccc(CN5CCOCC5)cc4)sc4ncnc2c34)c(F)c1 [Cpd 65]"
  value_prefix: "="
  pIC50: 6.19
- compound: "CCOC(=O)c1sc2ncnc3c2c1NC(=O)N3c1ccc(OCc2cccs2)c(Cl)c1 [Cpd 223]"
  value_prefix: "<"
  pIC50: 4.00
- compound: "O=C(Nc1ccc(CN2CCCCC2)cc1)c1sc2ncnc3c2c1NC(=O)N3c1ccc(Oc2cccc(F)c2)c(Cl)c1 [Cpd 160]"
  value_prefix: "="
  pIC50: 6.81
- compound: "COc1ccc(NC(=O)c2sc3ncnc4c3c2NC(=O)N4c2ccc(Oc3ccccc3)cc2)cc1OC [Cpd 99]"
  value_prefix: "="
  pIC50: 6.04
- compound: "COc1cc(N2C(=O)Nc3c(C(=O)Nc4ccc(CN5CCCCC5)cc4)sc4ncnc2c34)ccc1Br [Cpd 81]"
  value_prefix: "="
  pIC50: 6.16
- compound: "O=C(Nc1ccc(CCN2CCCCC2)cc1)c1sc2ncnc3c2c1NC(=O)N3c1ccc(Oc2cccc(F)c2)cc1 [Cpd 132]"
  value_prefix: "="
  pIC50: 6.31
- compound: "CN1CCC(NC(=O)c2sc3ncnc4c3c2NC(=O)N4c2ccc(Oc3ccccc3)cc2)CC1 [Cpd 211]"
  value_prefix: "="
  pIC50: 6.29
- compound: "COc1ccc(N2C(=O)Nc3c(C(=O)Nc4ccc(CN5CCCCC5)cc4)sc4ncnc2c34)cc1Cl [Cpd 121]"
  value_prefix: "="
  pIC50: 5.45

###

tested_system: HER-2 (Homo sapiens, UniProt P04626)
Construct: His6 with thrombin site (N)
Sequence (P04626 679-1255): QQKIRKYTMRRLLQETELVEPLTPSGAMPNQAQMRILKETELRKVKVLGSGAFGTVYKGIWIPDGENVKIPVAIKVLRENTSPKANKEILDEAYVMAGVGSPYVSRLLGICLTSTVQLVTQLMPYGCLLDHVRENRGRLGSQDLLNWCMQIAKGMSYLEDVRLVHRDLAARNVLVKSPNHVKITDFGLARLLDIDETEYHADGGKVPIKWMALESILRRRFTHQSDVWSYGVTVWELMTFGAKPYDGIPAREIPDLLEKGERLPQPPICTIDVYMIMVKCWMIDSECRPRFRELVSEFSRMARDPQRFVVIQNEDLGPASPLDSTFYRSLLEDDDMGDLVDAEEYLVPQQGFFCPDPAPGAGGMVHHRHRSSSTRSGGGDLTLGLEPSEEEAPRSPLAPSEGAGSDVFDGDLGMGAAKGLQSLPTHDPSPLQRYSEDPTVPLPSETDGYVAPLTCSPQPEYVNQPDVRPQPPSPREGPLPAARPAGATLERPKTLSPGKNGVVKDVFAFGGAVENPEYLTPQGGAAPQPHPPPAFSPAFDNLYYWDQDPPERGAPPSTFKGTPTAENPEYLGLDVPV
procedure_summary: HER-2 Kinase Assay
experimental_context: value in parentheses
pIC50: −log10 of the molar value.

- compound: "CC1CCN(Cc2ccc(NC(=O)c3sc4ncnc5c4c3NC(=O)N5c3ccc(Oc4ccccc4)cc3)cc2)CC1 [Cpd 255]"
  value_prefix: "="
  pIC50: 7.62
- compound: "O=C(Nc1ccc(CN2CCCCC2)cc1)c1sc2ncnc3c2c1NC(=O)N3c1ccc(OCc2ccccn2)c(Cl)c1 [Cpd 89]"
  value_prefix: "="
  pIC50: 7.16
- compound: "NCCCNC(=O)c1sc2ncnc3c2c1NC(=O)N3c1ccc2c(ccn2Cc2cccc(F)c2)c1 [Cpd 142]"
  value_prefix: "="
  pIC50: 6.42
- compound: "O=C(NCCCN1CCOCC1)c1sc2ncnc3c2c1NC(=O)N3c1ccc2c(ccn2Cc2cccc(F)c2)c1 [Cpd 95]"
  value_prefix: "="
  pIC50: 6.46
- compound: "Cc1cc(NC(=O)c2sc3ncnc4c3c2NC(=O)N4c2ccc(Oc3ccccc3)cc2)ccc1CN1CCOCC1 [Cpd 232]"
  value_prefix: "="
  pIC50: 7.55
- compound: "O=C(Nc1ccc(CN2CCOCC2)cc1)c1sc2ncnc3c2c1NC(=O)N3c1ccc(OCc2ccco2)c(Cl)c1 [Cpd 245]"
  value_prefix: "="
  pIC50: 7.32
- compound: "O=C(Nc1ccc(CN2CCOCC2)cc1)c1sc2ncnc3c2c1NC(=O)N3c1ccc(Oc2cccc(F)c2)c(Cl)c1 [Cpd 162]"
  value_prefix: "="
  pIC50: 7.09
- compound: "COc1cc(N2C(=O)Nc3c(C(=O)N(C)C)sc4ncnc2c34)ccc1Br [Cpd 83]"
  value_prefix: "<"
  pIC50: 5.00
- compound: "O=C(Nc1ccc(CN2CCCCC2)cc1)c1sc2ncnc3c2c1NC(=O)N3c1ccc(Oc2ccccc2)cc1 [Cpd 96]"
  value_prefix: "="
  pIC50: 7.39
- compound: "O=C(Nc1ccc(CN2CCOCC2)cc1)c1sc2ncnc3c2c1NC(=O)N3c1ccc(Oc2ccccc2)cc1 [Cpd 97]"
  value_prefix: "="
  pIC50: 7.57
- compound: "O=C(Nc1ccc(CN2CCOCC2)cc1)c1sc2ncnc3c2c1NC(=O)N3c1ccc(F)cc1Cl [Cpd 16]"
  value_prefix: "="
  pIC50: 5.26
